Exercise: for every item that follows, state its recorded kon.
assayed target: T1, human CD3e/g antigen (ACRO, catalog number CDG-H52W5) (human, UniProt P07766 23-126; P09693 23-116)
T1 construct: Bought reagent used as the Biacore analyte; also called hCD3e/g
test description: SPR (Biacore 8K), antibody captured via anti-human Fc
Protocol: The equilibrium dissociation constant of binding of CD3 antibodies to human CD3e/g antigen (purchased from ACRO, catalog number CDG-H52W5) was determined by kinetic binding method using Biacore 8K (GE) system. […]
The reply should contain only the number, in M⁻¹ s⁻¹.

Q) What value of measured kon is listed for hAb007-20 (antibody, V domains shown, Humanized; constant regions not specified) VH: QVQLVQSGAEVKKPGASVKVSCKASGSTFTDNYIHWVRQAPGQRLEWMGWIYPGSVNIKYNEKFKDRVTITRDTSASTAYMELSSLRSEDTAVYYCARDISRYYFDYWGQGTTVTVSS VL: DIVMTQSPDSLAVSLGERATMNCKSSQSLLNSRTRKNYLAWYQQKPGQPPKLLIYWASTRESGVPDRFTGSGSGTDFTLTISSLQAEDVAVYYCKQSFILRTFGGGTKLEIK ?
A) 337000

Q) Consider the binder shown here: hAb007-28 (antibody, V domains shown, Humanized; constant regions not specified) VH: QVQLVQSGAEVKKPGASVKVSCKASGSTFTDNYIHWVRQAPGQRLEWIGWIYPGSVNIKYNEKFKDRATITADTSASTAYMELSSLRSEDTAVYYCARDISRYYFDYWGQGTTVTVSS VL: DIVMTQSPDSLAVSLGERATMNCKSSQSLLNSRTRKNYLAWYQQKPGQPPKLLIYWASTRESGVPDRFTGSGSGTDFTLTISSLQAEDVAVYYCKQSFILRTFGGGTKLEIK What is its recorded kon?
A) 420000

Q) I have this binder here, hAb008-30 (antibody, V domains shown, Humanized; constant regions not specified) VH: QVQLVQSGAEVKKPGASVKVSCKASGYTFTDYTVNWVKQAPGQRLEWIGYINPFNSYTKYNQKFKDRATITADTSASTAYMELSSLRSEDTAVYFCANSVSTYWGQGTTVTVSS VL: DVVMTQSPLSLPVTLGQPASISCKSSQSLLDSDGKTYLNWLQQRPGQSPRRLIQLVSKLNSGVPDRFSGSGSGTDFTLKISRVEAEDVGVFYCWQGTHFPRTFGGGTKLEIK , and I need its recorded kon.
A) 256000

Q) What kon value was documented for this binder, hAb007-17 (antibody, V domains shown, Humanized; constant regions not specified) VH: QVQLVQSGAEVKKPGASVKVSCKASGSTFTDNYIHWVRQAPGQRLEWMGWIYPGSVNIKYNEKFKDRVTITRDTSASTAYMELSSLRSEDTAVYYCARDISRYYFDYWGQGTTVTVSS VL: DIVMTQSPDSLAVSLGERATINCKSSQSLLNSRTRKNYLAWYQQKPGQPPKLLIYWASTRESGVPDRFSGSGSGTDFTLTISSLQAEDVAVYYCKQSFILRTFGGGTKLEIK ?
A) 385000

Q) kon lookup needed for hAb008-29 (antibody, V domains shown, Humanized; constant regions not specified) VH: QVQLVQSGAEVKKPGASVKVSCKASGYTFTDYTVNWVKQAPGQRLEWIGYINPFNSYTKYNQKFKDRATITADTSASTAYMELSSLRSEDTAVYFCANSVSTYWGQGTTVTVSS VL: DVVMTQSPLSLPVTLGQPASISCKSSQSLLDSDGKTYLNWFQQRPGQSPRRLIQLVSKLNSGVPDRFSGSGSGTDFTLKISRVEAEDVGVFYCWQGTHFPRTFGGGTKLEIK , thanks.
A) 182000
